B1: HNF4A (parent)
chain: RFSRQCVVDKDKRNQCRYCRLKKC

Variants of: B1
Test: protein stability index of a GFP-peptide fusion (GPS, HEK-293T) (PSI 1-6); higher = more stable;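 also: lentivirally expressed fusions sorted by FACS into six bins by GFP to DsRed ratio, PSI derived from sequencing read proportions per bin multiplied by bin number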
Details: c terminus: a fixed tail appended
// reported protein stability index for each item listed

>  <mutation-spec>
L21G

>  <protein stability index>
2.94

$$$$
>  <mutation-spec>
L21W

>  <protein stability index>
2.94

$$$$
>  <mutation-spec>
L21Y

>  <protein stability index>
3.01

$$$$
>  <mutation-spec>
R4M

>  <protein stability index>
2.91

$$$$
>  <mutation-spec>
S3E

>  <protein stability index>
3.07

$$$$
>  <mutation-spec>
F2G

>  <protein stability index>
2.96

$$$$
>  <mutation-spec>
F2T

>  <protein stability index>
3.08

$$$$
>  <mutation-spec>
V7P

>  <protein stability index>
2.96

$$$$
>  <mutation-spec>
R13H

>  <protein stability index>
2.98

$$$$
>  <mutation-spec>
R20Q

>  <protein stability index>
2.98

$$$$
>  <mutation-spec>
C16L

>  <protein stability index>
2.92

$$$$
>  <mutation-spec>
R13N

>  <protein stability index>
3.03

$$$$
>  <mutation-spec>
C19M

>  <protein stability index>
3.08

$$$$
>  <mutation-spec>
C19H

>  <protein stability index>
3.07

$$$$
